# TARGET: Bromo1-linker(GGS)5-Bromo2 of BRD4 (UniProt O60885 54-168; O60885 351-457)
# ASSAY_METHOD_TEXT: ITC
Where no end group is shown, it is not given here.
QUANTITY_KIND: Kd

Any idea what its Kd is? The binder is AGGK(Ac)AGK(Ac)DSGK(Ac)AKTKC (also: cross-linked via C-terminal cysteine) [H2A.ZK4ac7ac11ac peptides cross-linked by a C-terminal cysteine] 350 µM
